Provide the recorded IC50 for the entries that follow.
biological target: GST–BIR3 fusion protein (XIAP BIR3 domain); assay: FMAT bead-based fluorescence competition assay
Ends that are not written are not given here.
Please state the figure in nM; there is no need to write the unit.

Entry ATPF-NH2 [ATPF (compound 17)] : reported IC50 = ?
200

Which IC50 value is on record for AIPF-NH2 [AIPF (compound 16)] ?
80

Form field: reported IC50 of SVPF-NH2 [SVPF (compound 10)]
1000

Fill in the blank: the reported IC50 of AVPIAQ-NH2 [Smac 6-mer peptide AVPIAQ (compound 2)] is ____.
270
